target: Recombinant Human Poly(ADP-Ribose)Polymerase (PARP), PARP-1 (Homo sapiens)
method: PARP1 assay (SPA/FlashPlate, [3H]-NAD+ incorporation into biotinylated histone H1)
measurementConditions: 1 nM PARP enzyme, 1.5 μM [3H]-NAD+, 200 nM biotinylated histone H1, 200 nM slDNA; Ki from inhibition curves at various substrate concentrations
endpointName: log10 Ki (log10 of the value in nM)
Parameter value (number): base-10 log of Ki in nM.

Look over these answered cases.
CCCN1CCC(c2nc(-c3nc4c(C(N)=O)cccc4[nH]3)cs2)CC1 [Example 8] ... 1.70
NC(=O)c1cccc2[nH]c(-c3ccc(C4CCCN4)nc3)nc12 (stereo not drawn) [Example 43] ... 0.48
CC(C)CN1CCCC1c1ccc(-c2nc3c(C(N)=O)cccc3[nH]2)s1 (stereo not drawn) [Example 39] ... 1.04

Could you please provide reported log10 Ki for NC(=O)c1cccc2[nH]c(-c3ccc(C4CCCN4C4CCCC4)nc3)nc12 (stereo not drawn) [Example 47] ? Thanks!
1.15

Could you please provide reported log10 Ki for NC(=O)c1cccc2[nH]c(-c3ccc([C@H]4CCCN4Cc4ccncc4)s3)nc12 [Example 26] ? Thanks!
0.78

Could you please provide reported log10 Ki for CC(C)N1CCCC1c1ccc(-c2nc3c(C(N)=O)cccc3[nH]2)s1 (stereo not drawn) [Example 36] ? Thanks!
0.70

Could you please provide reported log10 Ki for CC(C)CN1CCC[C@@H]1c1ccc(-c2nc3c(C(N)=O)cccc3[nH]2)s1 [Example 27] ? Thanks!
0.90

Could you please provide reported log10 Ki for NC(=O)c1cccc2[nH]c(-c3csc(-c4cccnc4)n3)nc12 [Example 1] ? Thanks!
1.16

Could you please provide reported log10 Ki for NC(=O)c1cccc2[nH]c(-c3ccc(-c4nnco4)cn3)nc12 [Example 51] ? Thanks!
0.26

###

target: Recombinant Human Poly(ADP-Ribose)Polymerase (PARP), PARP-1 (Homo sapiens)
method: PARP1 assay (SPA/FlashPlate, [3H]-NAD+ incorporation into biotinylated histone H1)
measurementConditions: 1 nM PARP enzyme, 1.5 μM [3H]-NAD+, 200 nM biotinylated histone H1, 200 nM slDNA; Ki from inhibition curves at various substrate concentrations
endpointName: pKi
For clarity, pKi is expressed as the negative log10 of concentration in mol/L.

Look over these answered cases.
NC(=O)c1cccc2[nH]c(-c3ccc(C4CCCN4CC4CC4)s3)nc12 (stereo not drawn) ... 8.22
NC(=O)c1cccc2[nH]c(-c3ccc(C4CCCN4C4CCC4)s3)nc12 (stereo not drawn) ... 8.00

Could you please provide reported pKi for CC(C)CN1CCCC1c1ccc(-c2nc3c(C(N)=O)cccc3[nH]2)cn1 (stereo not drawn) ? Thanks!
7.96

Could you please provide reported pKi for CN1CCCCC1c1ccc(-c2nc3c(C(N)=O)cccc3[nH]2)s1 (stereo not drawn) ? Thanks!
7.85

Could you please provide reported pKi for CC(C)N1CCCC1c1ccc(-c2nc3c(C(N)=O)cccc3[nH]2)cn1 (stereo not drawn) ? Thanks!
7.39

Could you please provide reported pKi for NC(=O)c1cccc2[nH]c(-c3ccc(C4CCCN4C4CCCCC4)s3)nc12 (stereo not drawn) ? Thanks!
7.92

Could you please provide reported pKi for NC(=O)c1cccc2[nH]c(-c3ccc(C4CCCN4C4CCOCC4)nc3)nc12 (stereo not drawn) ? Thanks!
7.77

Could you please provide reported pKi for CN1CCC[C@@H]1c1ccc(-c2nc3c(C(N)=O)cccc3[nH]2)s1 ? Thanks!
8.00

Could you please provide reported pKi for NC(=O)c1cccc2[nH]c(-c3ccc(C4CCCN4C4CCC4)nc3)nc12 (stereo not drawn) ? Thanks!
7.77

###

target: Recombinant Human Poly(ADP-Ribose)Polymerase (PARP), PARP-1 (Homo sapiens)
method: PARP1 assay (SPA/FlashPlate, [3H]-NAD+ incorporation into biotinylated histone H1)
measurementConditions: 1 nM PARP enzyme, 1.5 μM [3H]-NAD+, 200 nM biotinylated histone H1, 200 nM slDNA; Ki from inhibition curves at various substrate concentrations
Quick reference for log10(Ki) among some compounds
Parameter value (number): base-10 log of Ki in nM.

Look over these answered cases.
NC(=O)c1cccc2[nH]c(-c3ccc([C@H]4CCCN4C4CCOCC4)s3)nc12 ... 1.08
Cc1nc(-c2cnccn2)sc1-c1nc2c(C(N)=O)cccc2[nH]1 ... 1.45
NC(=O)c1cccc2[nH]c(-c3ccc([C@H]4CCCN4Cc4ccccn4)s3)nc12 ... 1.00
NC(=O)c1cccc2[nH]c(-c3ccc(C4CCCN4C4CCCC4)s3)nc12 (stereo not drawn) ... 0.70
NC(=O)c1cccc2[nH]c(-c3ccc(-c4ccc[nH]4)s3)nc12 ... 0.70
CCCN1CCC[C@@H]1c1ccc(-c2nc3c(C(N)=O)cccc3[nH]2)s1 ... 0.90

Lab note: record log10(Ki) of NC(=O)c1cccc2[nH]c(-c3csc(C4CCN(C5CCC5)CC4)n3)nc12 tested on Recombinant Human Poly(ADP-Ribose)Polymerase (PARP), PARP-1 (Homo sapiens).
1.64

Lab note: record log10(Ki) of Cc1nnc(-c2ccc(-c3nc4c(C(N)=O)cccc4[nH]3)nc2)o1 tested on Recombinant Human Poly(ADP-Ribose)Polymerase (PARP), PARP-1 (Homo sapiens).
2.50

Lab note: record log10(Ki) of CC(C)N1CCC[C@@H]1c1ccc(-c2nc3c(C(N)=O)cccc3[nH]2)s1 tested on Recombinant Human Poly(ADP-Ribose)Polymerase (PARP), PARP-1 (Homo sapiens).
0.78

###

Quick reference for log10 of Ki among some compounds
target: Recombinant Human Poly(ADP-Ribose)Polymerase (PARP), PARP-1 (Homo sapiens, UniProt P09874)
Sequence (P09874 whole entry): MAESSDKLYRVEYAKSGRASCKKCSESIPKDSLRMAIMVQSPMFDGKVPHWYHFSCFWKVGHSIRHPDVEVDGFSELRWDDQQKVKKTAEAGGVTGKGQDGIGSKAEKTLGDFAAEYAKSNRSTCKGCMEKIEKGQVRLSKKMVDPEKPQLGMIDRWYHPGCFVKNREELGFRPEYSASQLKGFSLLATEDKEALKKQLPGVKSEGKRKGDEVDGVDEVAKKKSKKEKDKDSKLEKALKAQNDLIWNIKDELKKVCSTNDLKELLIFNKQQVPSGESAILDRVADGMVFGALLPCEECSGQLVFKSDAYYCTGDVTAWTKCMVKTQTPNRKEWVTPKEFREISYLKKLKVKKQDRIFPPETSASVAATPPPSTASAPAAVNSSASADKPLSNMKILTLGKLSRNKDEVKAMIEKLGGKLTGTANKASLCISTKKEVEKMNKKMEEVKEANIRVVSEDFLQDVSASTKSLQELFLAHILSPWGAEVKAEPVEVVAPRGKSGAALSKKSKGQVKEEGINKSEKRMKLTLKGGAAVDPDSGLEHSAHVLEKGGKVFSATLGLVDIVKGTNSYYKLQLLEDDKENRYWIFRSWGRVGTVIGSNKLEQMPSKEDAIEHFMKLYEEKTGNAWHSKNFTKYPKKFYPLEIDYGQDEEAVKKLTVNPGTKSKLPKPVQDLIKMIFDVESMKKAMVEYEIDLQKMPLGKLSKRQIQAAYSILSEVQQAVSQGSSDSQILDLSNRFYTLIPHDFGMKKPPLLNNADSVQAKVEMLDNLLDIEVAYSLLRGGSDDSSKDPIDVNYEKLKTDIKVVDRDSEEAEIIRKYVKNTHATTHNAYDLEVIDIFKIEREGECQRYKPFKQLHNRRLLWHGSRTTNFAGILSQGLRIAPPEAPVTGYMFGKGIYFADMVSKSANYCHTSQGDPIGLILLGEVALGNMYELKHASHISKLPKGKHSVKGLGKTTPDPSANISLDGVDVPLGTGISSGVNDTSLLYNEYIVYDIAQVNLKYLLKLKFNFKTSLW
method: PARP1 assay (SPA/FlashPlate, [3H]-NAD+ incorporation into biotinylated histone H1)
measurementConditions: 1 nM PARP enzyme, 1.5 μM [3H]-NAD+, 200 nM biotinylated histone H1, 200 nM slDNA; Ki from inhibition curves at various substrate concentrations
Parameter value (number): base-10 log of Ki in nM.

Look over these answered cases.
NC(=O)c1cccc2[nH]c(-c3ccc(C4CCCN4)s3)nc12 (stereo not drawn) ... 0.85
NC(=O)c1cccc2[nH]c(-c3csc(-c4cccs4)n3)nc12 ... 1.32
NC(=O)c1cccc2[nH]c(-c3ccc([C@H]4CCCN4CC4CC4)s3)nc12 ... 0.70
NC(=O)c1cccc2[nH]c(-c3csc(C4CCNCC4)n3)nc12 ... 1.51
NC(=O)c1cccc2[nH]c(-c3ccc(C4CCCCN4CC4CC4)s3)nc12 (stereo not drawn) ... 1.04
CCCN1CCCCC1c1ccc(-c2nc3c(C(N)=O)cccc3[nH]2)s1 (stereo not drawn) ... 1.20
NC(=O)c1cccc2[nH]c(-c3ccc(-c4cccnc4)s3)nc12 ... 0.38
NC(=O)c1cccc2[nH]c(-c3ccc([C@H]4CCCN4C4CCCC4)s3)nc12 ... 0.48

Switching to the query record.
Could you please provide reported log10 of Ki for NC(=O)c1cccc2[nH]c(-c3ccc(C4CCCCN4)s3)nc12 (stereo not drawn) ? Thanks!
0.85
